# Locomotor activity (counts/60 min ± SEM) listing for each entry below
Tested on: drug-naive rats
TEST_DESCRIPTION: Locomotor activity in drug-naive rats (in vivo behaviour)
Design: species or system rat
MEASUREMENT_CONTEXT: 3.7 μmol/kg, recorded for 60 minutes immediately after drug administration
VALUE_TYPE: Locomotor activity (counts/60 min ± SEM)

# COMPOUND, REPORTED_VALUE
measured = [
    ("CCCNC[C@H]1COc2ccc(Br)cc2O1", "6714 ± 601 counts/60 min"),
    ("CCCNCC1COc2ccc(F)c(F)c2O1 (centres unmarked)", "7932 ± 2067 counts/60 min"),
    ("Fc1ccc2c(c1)O[C@@H](CN1CCCC1)CO2", "5419 ± 1414 counts/60 min"),
    ("CCCNCC1COc2c(F)cc(F)cc2O1 (centres unmarked)", "9266 ± 2706 counts/60 min"),
    ("CCCNCC1COc2ccc(OS(=O)(=O)C(F)(F)F)cc2O1 (centres unmarked)", "9495 ± 2036 counts/60 min"),
]
